Target protein (sequence): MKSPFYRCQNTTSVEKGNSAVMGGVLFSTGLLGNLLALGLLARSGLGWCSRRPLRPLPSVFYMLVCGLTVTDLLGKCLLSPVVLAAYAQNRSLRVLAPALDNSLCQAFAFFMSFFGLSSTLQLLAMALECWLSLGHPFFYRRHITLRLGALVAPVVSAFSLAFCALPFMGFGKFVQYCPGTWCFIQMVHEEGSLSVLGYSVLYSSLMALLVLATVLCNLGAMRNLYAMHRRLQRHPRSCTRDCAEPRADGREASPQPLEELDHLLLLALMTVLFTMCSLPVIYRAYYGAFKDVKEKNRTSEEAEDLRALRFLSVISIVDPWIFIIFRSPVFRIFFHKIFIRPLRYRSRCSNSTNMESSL
pIC50: −log10 of the molar value.
Assignment: determine reported pIC50 for the given molecules.

Input line: Please look up its pIC50: O=C(O)CCn1c2c(c3ccccc31)C[C@H](NS(=O)(=O)c1ccc(F)cc1)CC2 [Ramatroban, reference compound]
Output line: < 6.00

Input line: Next molecule: CC(C)(O)CN(C1CCc2c(c3ccccc3n2CCC(=O)O)C1)S(=O)(=O)c1ccc(F)cc1 (stereo not shown)
Output line: < 6.00

Input line: Now this one: CC(C)(O)CCn1c2c(c3ccccc31)CC(N(CC(C)(C)O)S(=O)(=O)c1ccc(F)cc1)CC2 (stereo not shown)
Output line: < 6.00

Input line: Query O=C(O)CN(C1CCc2c(c3ccccc3n2CC(=O)O)C1)S(=O)(=O)c1ccc(F)cc1 (stereo not shown) next
Output line: < 6.00

----------
Exercise: state measured IC50 for each of the compounds provided.
# subject-of-test: UniProt:Q9Y5Y4
# Sequence (Q9Y5Y4 whole entry): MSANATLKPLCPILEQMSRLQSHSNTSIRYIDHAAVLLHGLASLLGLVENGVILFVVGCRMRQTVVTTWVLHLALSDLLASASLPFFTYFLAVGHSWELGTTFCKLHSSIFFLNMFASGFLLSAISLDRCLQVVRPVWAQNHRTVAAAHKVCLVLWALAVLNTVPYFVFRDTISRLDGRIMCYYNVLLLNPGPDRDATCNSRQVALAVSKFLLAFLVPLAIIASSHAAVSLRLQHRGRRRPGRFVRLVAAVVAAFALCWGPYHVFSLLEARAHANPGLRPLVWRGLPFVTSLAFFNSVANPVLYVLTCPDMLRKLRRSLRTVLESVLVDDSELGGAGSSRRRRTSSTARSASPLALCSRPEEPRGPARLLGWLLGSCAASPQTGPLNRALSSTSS
# assay-protocol: DP2/CRTH2 binding assay (radioligand [3H]PGD2)
# test-context: [3H]PGD2 binding, membranes of HEK293 cells expressing recombinant human DP2; read-out: hDP2

Input line: Param item = CC(C)(O)CCn1c2c(c3ccccc31)CC(N(CC(=O)O)S(=O)(=O)c1ccc(F)cc1)CC2 (stereo not shown) ; retrieve measured IC50.
Output line: > 1000 nM

Input line: Can you handle O=C(O)CCn1c2c(c3ccccc31)CC(N(CC(=O)O)S(=O)(=O)c1ccc(F)cc1)CC2 (stereo not shown) next?
Output line: > 1000 nM

Input line: Query O=C(O)CCn1c2c(c3ccccc31)C[C@H](NS(=O)(=O)c1ccc(F)cc1)CC2 [Ramatroban, reference compound] next
Output line: > 300 nM

Input line: Same read-out for O=C(O)CN(C1CCc2c(c3ccccc3n2CC(=O)O)C1)S(=O)(=O)c1ccc(F)cc1 (stereo not shown) ?
Output line: < 300 nM

Input line: Please do the same for CC(C)(O)CN(C1CCc2c(c3ccccc3n2CCC(=O)O)C1)S(=O)(=O)c1ccc(F)cc1 (stereo not shown) as well.
Output line: > 1000 nM

Input line: # repeat for NC(=O)CN(C1CCc2c(c3ccccc3n2CCC(=O)O)C1)S(=O)(=O)c1ccc(F)cc1 (stereo not shown)
Output line: > 1000 nM

Input line: Now this one: CC(C)(O)CCn1c2c(c3ccccc31)CC(N(CC(C)(C)O)S(=O)(=O)c1ccc(F)cc1)CC2 (stereo not shown)
Output line: > 1000 nM
